These entries and their values trace back to ChEMBL document CHEMBL4390674.

- tgt: D(1A) dopamine receptor (Homo sapiens)
- Sequence (P21728 whole entry, the tested form may be a part): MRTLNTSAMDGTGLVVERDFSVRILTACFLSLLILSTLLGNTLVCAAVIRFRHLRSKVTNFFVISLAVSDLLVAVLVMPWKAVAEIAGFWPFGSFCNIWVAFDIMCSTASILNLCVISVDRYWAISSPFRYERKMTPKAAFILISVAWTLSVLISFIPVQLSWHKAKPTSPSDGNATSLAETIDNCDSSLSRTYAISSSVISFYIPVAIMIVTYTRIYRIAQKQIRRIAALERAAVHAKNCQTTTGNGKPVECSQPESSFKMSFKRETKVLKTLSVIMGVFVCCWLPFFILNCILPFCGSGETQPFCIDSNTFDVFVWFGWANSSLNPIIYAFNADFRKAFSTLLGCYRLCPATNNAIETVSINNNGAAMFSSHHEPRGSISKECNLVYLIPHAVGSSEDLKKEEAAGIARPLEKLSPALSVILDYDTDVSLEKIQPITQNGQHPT
- procedure-text: Agonist activity at recombinant C-terminal RLuc8-fused human D1 receptor expressed in HEK29T cells co-expressing N-terminal Venus-tagged beta-arrestin2 assessed as increase in beta-arrestin2 recruitment at 10^-4M measured after 15 mins in presence of coelenterazine H by BRET assay relative to dopamine
- Format: cell-based
Active and inactive are the calls of the source. No cut-off for these calls is given here.
measured-quantity: Emax

Use the examples below as a reference point.
| given-smiles | measured-quantity | result |
| --- | --- | --- |
| FC(F)(F)c1cc(Oc2ccccn2)ccc1-c1cccc2nccn12 | Emax | inactive |
| Cc1ncc2nccn2c1-c1ccc(Oc2nccc3occc23)c(C(F)(F)F)c1 | Emax | inactive |
| Cc1cc(N(C)c2nccc3occc23)ccc1-c1c(C)ncc2nccn12 | Emax | inactive |
| Cc1cc(Oc2ncccc2Br)ccc1-c1c(C)ncc2nccn12 | Emax | inactive |

Respond only with Emax recorded for Cc1ncc2nccn2c1-c1ccc(Oc2nccc3occc23)c(C)c1C
inactive

Respond only with Emax recorded for Cc1cc(Oc2nccc3occc23)ccc1-c1ccc(C#N)cn1
inactive

Respond only with Emax recorded for Cc1cc(Oc2nccc3occc23)cc(C)c1-c1cccc2nccn12
inactive

Respond only with Emax recorded for FC(F)(F)c1cc(Oc2nccn3cccc23)ccc1-c1cccc2nccn12
inactive

Respond only with Emax recorded for FC(F)(F)c1cc(Oc2nccc3occ(C4CC4)c23)ccc1-c1cccc2nccn12
inactive

Respond only with Emax recorded for Cc1cc(Oc2nccc3occc23)ccc1-c1cncc(C(N)=O)c1
inactive

Respond only with Emax recorded for Cc1ncc2nccn2c1-c1cc(F)c(Oc2nccc3occc23)c(F)c1
inactive
